# SYSTEM_NAME: KRas (Homo sapiens, UniProt P01116, G12C)
# PROTOCOL_TEXT: KRas degradation in NCI-H2030 cells by Western blot, normalized to GAPDH (data of Table 14)
# Assay type: cell-based
# Design: host or cells: NCI-H2030
# CONDITIONS: NCI-H2030; H2030 cells
Recorded Dmax for the following compounds

INSERT INTO assay_data (compound, assay_result) VALUES
  ('C=CC(=O)N1CCN(c2nc(NCCC(=O)N(C)CCOCCOCCOCC(=O)N[C@H](C(=O)N3C[C@H](O)C[C@H]3C(=O)N[C@@H](C)c3ccc(-c4scnc4C)cc3)C(C)(C)C)nc3c(F)c(-c4cc(O)cc5ccccc45)c(Cl)cc23)CC1 [compound 193]', '≤ 35%');

Find the recorded Dmax belonging to CCC(=O)N1CCN(c2nc(NCCC(=O)N(C)CCOCCOCCOCCOCCOc3cc(-c4scnc4C)ccc3CNC(=O)[C@@H]3C[C@@H](O)CN3C(=O)C(c3cc(C)no3)C(C)C)nc3c(F)c(-c4cc(O)cc5ccccc45)c(Cl)cc23)CC1 (some centres unmarked) [compound 336] and report it. ≤ 35%

* * *

# SYSTEM_NAME: KRas (Homo sapiens, UniProt P01116, G12C)
# PROTOCOL_TEXT: KRas degradation in NCI-H2030 cells by Western blot, normalized to GAPDH (data of Table 14)
# Assay type: cell-based
# Design: host or cells: NCI-H2030
# CONDITIONS: H2030 cells, 1 μM
EXPERIMENTAL_ENDPOINT: Percent Degradation at Indicated Concentration (μM): 1

INSERT INTO assay_data (smiles_notation, assay_result) VALUES
  ('C=CC(=O)N1CCN(c2nc(NCCC(=O)N(C)CCOCCOCCOCCOCCOCC(=O)N[C@H](C(=O)N3C[C@H](O)C[C@H]3C(=O)N[C@@H](C)c3ccc(-c4scnc4C)cc3)C(C)(C)C)nc3c(F)c(-c4cc(O)cc5ccccc45)c(Cl)cc23)CC1', 'C (C ≤ 35)'),
  ('CCC(=O)N1CCN(c2nc(NCCC(=O)N(C)CCOCCOc3cc(-c4scnc4C)ccc3CNC(=O)[C@@H]3C[C@@H](O)CN3C(=O)[C@@H](c3cc(C)no3)C(C)C)nc3c(F)c(-c4cc(O)cc5ccccc45)c(Cl)cc23)CC1', 'C (C ≤ 35)');

* * *

Entries annotated with measured Dmax
# SYSTEM_NAME: KRas (Homo sapiens, UniProt P01116, G12C)
# PROTOCOL_TEXT: KRas degradation in NCI-H2030 cells by Western blot, normalized to GAPDH (data of Table 14)
# Assay type: cell-based
# Parameters: host or cells: NCI-H2030
# CONDITIONS: NCI-H2030

INSERT INTO results (compound, system_name, experimental_endpoint, assay_result) VALUES
  ('C=CC(=O)N1CCN(c2nc(NCCC(=O)N(C)CCOCCOCCOCCOCCOc3cc(-c4scnc4C)ccc3CNC(=O)[C@@H]3C[C@@H](O)CN3C(=O)[C@H](c3cc(C)no3)C(C)C)nc3c(F)c(-c4c(O)cccc4F)c(Cl)cc23)CC1 (atropisomer, axis not shown)', 'KRas (Homo sapiens, UniProt P01116, G12C)', 'Dmax', '≤ 35%');

Give the reported Dmax for C=CC(=O)N1CCN(c2nc(NCCC(=O)N(C)CCOCCOCCNC(=O)c3ccc(NC(=O)[C@@H]4N[C@@H](CC(C)(C)C)[C@](C#N)(c5ccc(Cl)cc5F)[C@H]4c4cccc(Cl)c4F)c(OC)c3)nc3c(F)c(-c4cc(O)cc5ccccc45)c(Cl)cc23)CC1 (system: KRas (Homo sapiens, UniProt P01116, G12C)). ≤ 35%

* * *

# SYSTEM_NAME: KRas (Homo sapiens, UniProt P01116, G12C)
# PROTOCOL_TEXT: KRas degradation in H2030 cells by Western blot (data of Table 5)
# Assay type: cell-based
# Set-up: host or cells: NCI-H2030
# CONDITIONS: H2030 cells serum starved 24 hours, treated 24 hours with 1 uM; KRas immunoblot
EXPERIMENTAL_ENDPOINT: H2030 Degradation at 1 uM

INSERT INTO results (molecule, system_name, experimental_endpoint, assay_result) VALUES
  ('CCC(=O)N1CCN(c2nc(NCCC(=O)N(C)CCOCCOCCOCCOCCOCC(=O)N[C@H](C(=O)N3C[C@H](O)C[C@H]3C(=O)N[C@@H](C)c3ccc(-c4scnc4C)cc3)C(C)(C)C)nc3c(F)c(-c4cc(O)cc5ccccc45)c(Cl)cc23)CC1', 'KRas (Homo sapiens, UniProt P01116, G12C)', 'H2030 Degradation at 1 uM', 'C (C < 25)'),
  ('CCC(=O)N1CCN(c2nc(NCCC(=O)N(C)CCOCCOCCOCCOCCOc3ccc4c(c3)CN(C3CCC(=O)NC3=O)C4=O)nc3c(F)c(-c4cc(O)cc5ccccc45)c(Cl)cc23)CC1 (stereo not shown)', 'KRas (Homo sapiens, UniProt P01116, G12C)', 'H2030 Degradation at 1 uM', 'C (C < 25)');

* * *

# SYSTEM_NAME: KRas (Homo sapiens, UniProt P01116, G12C)
# PROTOCOL_TEXT: KRas degradation in SW1573 cells by Western blot, normalized to GAPDH (data of Table 14)
# Assay type: cell-based
# CONDITIONS: SW1573 cells, 1 μM
EXPERIMENTAL_ENDPOINT: Percent Degradation at Indicated Concentration (μM)

INSERT INTO assay_data (compound, assay_result) VALUES
  ('C=CC(=O)N1CCN(c2nc(OC[C@@H]3C[C@@H](OCCOCCNc4cccc5c4C(=O)N(C4CCC(=O)NC4=O)C5=O)CN3C)nc3c2CCN(c2cccc4ccccc24)C3)C[C@@H]1CC#N (stereo partly drawn)', 'B (35 < B < 70)'),
  ('C=CC(=O)N1CCN(c2nc(O[C@H](C)CN3CCC(OCCOc4cc(-c5scnc5C)ccc4CNC(=O)[C@@H]4C[C@@H](O)CN4C(=O)[C@@H](c4cc(C)no4)C(C)C)CC3)nc3c2CCN(c2cc(O)cc4ccccc24)C3)CC1', 'B (35 < B < 70)');

* * *

# SYSTEM_NAME: KRas (Homo sapiens, UniProt P01116, G12C)
# PROTOCOL_TEXT: KRas degradation in H2030 cells by Western blot (data of Table 5)
# Assay type: cell-based
# Parameters: host or cells: NCI-H2030
# CONDITIONS: H2030 cells serum starved 24 hours, treated 24 hours with 3 uM; KRas immunoblot
# Protocol: Cell Lines, Antibodies, and Reagents. NCI-H2030 (CRL-5914) and SW1573 (CRL-2170) cells were purchased from ATCC. Both cell lines are homozygous for the G12C mutation in KRas. […] GAPDH was detected using an antibody purchased from Cell Signaling Technology (Cat. No. 5174) and was diluted 1:3000. […] Compound Treatment and Western Blotting of the Data of Table 5. […] KRas was detected by immunoblotting using the LSBio antibody (Cat. No. LS-C175665). […]
EXPERIMENTAL_ENDPOINT: H2030 Degradation at 3 uM

INSERT INTO assay_data (molecule, experimental_endpoint, assay_result) VALUES
  ('C=CC(=O)N1CCN(c2nc(NCCC(=O)N(C)CCOCCOCCOCC(=O)N[C@H](C(=O)N3C[C@H](O)C[C@H]3C(=O)N[C@@H](C)c3ccc(-c4scnc4C)cc3)C(C)(C)C)nc3c(F)c(-c4cc(O)cc5ccccc45)c(Cl)cc23)CC1', 'H2030 Degradation at 3 uM', 'B (25 ≤ B < 50)'),
  ('C=CC(=O)N1CCN(c2nc(NCCC(=O)N(C)CCOCCOCCOCCOCCOc3ccc4c(c3)CN(C3CCC(=O)NC3=O)C4=O)nc3c(F)c(-c4cc(O)cc5ccccc45)c(Cl)cc23)CC1 (stereo not shown)', 'H2030 Degradation at 3 uM', 'B (25 ≤ B < 50)');

* * *

The reader will find reported Dmax values listed item by item below.
# SYSTEM_NAME: KRas (Homo sapiens, UniProt P01116, G12C)
# PROTOCOL_TEXT: KRas degradation in NCI-H2030 cells by Western blot, normalized to GAPDH (data of Table 14)
# Format: cell-based
# Parameters: host or cells: NCI-H2030
# CONDITIONS: NCI-H2030; H2030 cells

INSERT INTO results (molecule, experimental_endpoint, assay_result) VALUES
  ('C=CC(=O)N1CCN(c2nc(NCCC(=O)N(C)CCOCCOc3ccc4c(c3)C(=O)N(C3CCC(=O)NC3=O)C4=O)nc3c(F)c(-c4cc(O)cc5ccccc45)c(Cl)cc23)CC1 (centres unmarked)', 'Dmax', '≤ 35%');

Now for the molecule whose Dmax we want.
Fill blank: measured Dmax of the molecule CCC(=O)N1CCN(c2nc(NCCC(=O)N(C)CCOCCOCCOCC(=O)N[C@H](C(=O)N3C[C@H](O)C[C@H]3C(=O)N[C@@H](C)c3ccc(-c4scnc4C)cc3)C(C)(C)C)nc3c(F)c(-c4cc(O)cc5ccccc45)c(Cl)cc23)CC1 is ____. ≤ 35%
